Cited source: patent US20250304608A1

- Test system: mPTP-inactive Daoy cell
- MEASUREMENT NOTES: CellTiter-Glo cell viability inhibition, mPTP-inactive Daoy cell
- Format: cell-based
- ASSAY CONDITIONS: Homo sapiens, Daoy cell transfected with PPIF shRNA vector
Returns: string. Value is label 1 if measured IC50 is below 2000 nM, and label 0 if it is greater than or equal to it.

| MOL | LABEL VALUE |
| --- | --- |
| c1ccc([P+](c2ccccc2)(c2ccc3[nH]ccc3c2)c2ccc3[nH]cnc3c2)cc1 | label 0 |
| C1=C([P+](c2ccccc2)(c2ccccc2)c2ccccc2)CCOC1 | label 0 |
| c1ccc([P+](c2ccccc2)(c2ccccc2)c2cccc3c2ccn3CCN2CCOCC2)cc1 | label 1 |
| c1ccc([P+](c2ccccc2)(c2ccc3[nH]ccc3c2)c2cnc3[nH]ccc3c2)cc1 | label 1 |
| c1ccc([P+](c2ccccc2)(c2ccc3cn[nH]c3c2)c2cccc3[nH]ccc23)cc1 | label 1 |
| c1ccc([P+](c2ccccc2)(c2ccc3[nH]cnc3c2)c2cccc3[nH]ccc23)cc1 | label 0 |
| CCCCCCCCCCCCCC[P+](c1ccccc1)(c1ccccc1)c1ccccc1 | label 1 |
| COc1ccc([P+](c2ccc(OC)cc2)(c2cccc3c2cnn3C)c2cccc3c2cnn3C)cc1 | label 1 |
| c1ccc([P+](c2ccccc2)(c2ccccc2)c2cccc3ccoc23)cc1 | label 1 |
| c1ccc([P+](c2ccccc2)(c2ccccc2)c2cscn2)cc1 | label 0 |
| c1ccc([P+](CC[P+](c2ccccc2)(c2ccccc2)c2ccccc2)(c2ccccc2)c2ccccc2)cc1 | label 0 |
| c1ccc([P+](c2ccccc2)(c2cccnc2)c2ccc3cc[nH]c3c2)cc1 | label 0 |

----------
- Tested on: mPTP-inactive Daoy cell
- MEASUREMENT NOTES: CellTiter-Glo cell viability inhibition, mPTP-inactive Daoy cell
- Type: cell-based
- ASSAY CONDITIONS: Homo sapiens, Daoy cell transfected with PPIF shRNA vector
pIC50: −log10 of the molar value.
Could you label it Yes if measured pIC50 is 6 or higher, and No otherwise?

| MOL | LABEL VALUE |
| --- | --- |
| COc1ccc([P+](c2ccccc2)(c2ccccc2)c2cccc3[nH]ccc23)cc1 | Yes |
| c1ccc([P+](c2ccccc2)(c2ccccc2)c2ccc3c(ccn3CCN3CCOCC3)c2)cc1 | Yes |
| COc1ccc([P+](c2ccc(OC)cc2)(c2cccc3[nH]ncc23)c2cccc3[nH]ncc23)cc1 | No |
| c1ccc([P+](c2ccccc2)(c2ccccc2)c2cccc3c2ccn3CCN2CCCCC2)cc1 | Yes |
| C(=C\C[P+](c1ccccc1)(c1ccccc1)c1ccccc1)/C[P+](c1ccccc1)(c1ccccc1)c1ccccc1 | No |
| c1ccc(P(=[N+]=P(c2ccccc2)(c2ccccc2)c2ccccc2)(c2ccccc2)c2ccccc2)cc1 | Yes |
| c1ccc([P+](c2ccccc2)(c2ccc3[nH]ccc3c2)c2ccc3[nH]ccc3n2)cc1 | Yes |
| c1ccc([P+](c2ccccc2)(c2ccc3cc[nH]c3c2)c2ccc3nc[nH]c3c2)cc1 | No |
| c1ccc([P+](c2ccccc2)(c2ccccc2)c2cccc3[nH]cnc23)cc1 | No |
| c1ccc([P+](c2ccccc2)(c2ccccc2)c2cccc3cc[nH]c23)cc1 | No |
| c1ccc([P+](c2ccccc2)(c2ccc3cc[nH]c3c2)c2ccccn2)cc1 | No |
| COc1ccc([P+](c2ccc(OC)cc2)(c2ccnc3c2ccn3C)c2cccc3c2cnn3C)cc1 | Yes |
| COc1ccc([P+](c2ccc(OC)cc2)(c2cccc3nn(C)cc23)c2cccc3c2cnn3C)cc1 | No |
| c1ccc([P+](c2ccccc2)(c2cnc3cc[nH]c3c2)c2cccc3[nH]ccc23)cc1 | No |
| c1ccc([P+](c2ccccc2)(c2ccncc2)c2ccc3cc[nH]c3c2)cc1 | No |
| Cn1ccc2c([P+](c3ccccc3)(c3ccccc3)c3cccc4[nH]ccc34)cccc21 | Yes |
| c1ccc([P+](c2ccccc2)(c2cccc3[nH]ccc23)c2cccc3[nH]cnc23)cc1 | No |
| c1ccc([P+](c2ccccc2)(c2ccccc2)c2cccc3[nH]ncc23)cc1 | No |
| c1ccc([P+](c2ccccc2)(c2cncc3[nH]ccc23)c2cncc3[nH]ccc23)cc1 | No |
